Assignment: determine reported IC50 for the given substances.
- Test system: AR mRNA
- method notes: Dose-dependent antisense inhibition of human AR in HuVEC cells (electroporation, qRT-PCR RTS3559, IC50)
- Format: cell-based
- condition label: HuVEC, ~16 h; Table 3
Oligonucleotides are written 5' to 3', each unit as a sugar letter and its base; * is a phosphorothioate linkage, no mark a phosphodiester; rarer units and linkages stand in square brackets, end groups in braces. Plain capitals give the bases only. k = constrained ethyl (cEt); [5mC] = 5-methylcytosine; d = 2'-deoxy (DNA)
Numbers only, in nM.

// below: answered substances
[in] Could you tell me which IC50 is on file for 549360 (kG*kG*kT*d[5mC]*dG*dA*dA*dG*dT*dG*d[5mC]*d[5mC]*d[5mC]*k[5mC]*k[5mC]*kT; antisense) [compound 549360] ?
[out] 116

[in] Please answer likewise for 549372 (kA*kA*kG*dT*dT*dG*dT*dA*dG*dT*dA*dG*dT*k[5mC]*kG*k[5mC]) [compound 549372]
[out] 150

Please find the next substance below.
[in] Could you tell me which IC50 is on file for 549371 (kG*kT*kT*dG*dT*dA*dG*dT*dA*dG*dT*d[5mC]*dG*k[5mC]*kG*kA; antisense) [compound 549371] ?
[out] 148
